methodSummary: melting temperature; fluorescence melt of hairpins on a sequencing array, two-state fit, raised by 9.35 °C to match UV melts
reportedConditions: sodium 0.088 M
In this section, each of the sequences is paired with its reported Tm.
Note: a bare number is incomplete; add the unit.

GCGCGGCGAAAGCCAGGC ((..(((....)))..))
54.4 °C
GGCACCGAAAGGTTAGCC ((((((....)))..)))
50.8 °C
GCATCCACGAAAGTGTGC (((..(((....))))))
37.6 °C

Please find the next sequence below.
stdin: Look up Tm for this sequence: GACTCAACGAAAGTTGTC (((..(((....))))))
stdout: 29.9 °C
